system_under_test: MET (Homo sapiens)
Construct: Purified GST fusion protein containing the Met kinase domain, SUGEN, Inc
test_protocol: MET transphosphorylation assay
run_parameters: GST fusion protein containing the Met kinase domain, poly(glu-tyr) substrate
property_name: IC50 (nM)

Record excerpt, results attached:
[
  {
    "compound_string": "Cc1[nH]c(/C=C2\\C(=O)Nc3cccc(-c4ccc(F)cc4)c32)c(C)c1C(=O)NCCN1CCCC1",
    "measurement_unit": "nM",
    "IC50": 73
  },
  {
    "compound_string": "CCN(CC)CCNC(=O)c1c[nH]c(/C=C2\\C(=O)Nc3cccc(-c4ccc(Br)cc4)c32)c1C",
    "measurement_unit": "nM",
    "IC50": 110
  },
  {
    "compound_string": "Cc1cc(C(=O)NCCn2ccnn2)c(/C=C2\\C(=O)Nc3cccc(-c4ccccc4F)c32)[nH]1",
    "measurement_unit": "nM",
    "IC50": 180
  }
]

[A] COc1cccc(-c2cccc3c2/C(=C/c2[nH]c(C)c(C(=O)NCCN(C(C)C)C(C)C)c2C)C(=O)N3)c1
[B] Cc1[nH]c(/C=C2\C(=O)Nc3cccc(-c4ccc(Br)cc4)c32)c(C)c1C(=O)NCCN(C(C)C)C(C)C
[C] Cc1[nH]c(/C=C2\C(=O)Nc3cccc(-c4ccc(F)cc4)c32)c(C)c1C(=O)N1CCN(C)CC1
[D] CCN(CC)CCNC(=O)c1c(C)[nH]c(/C=C2\C(=O)Nc3cccc(-c4cccc(Br)c4)c32)c1C
[E] Cc1[nH]c(/C=C2\C(=O)Nc3cccc(-c4ccc(Br)cc4)c32)c(C)c1C(=O)N1C[C@@H](C)N[C@@H](C)C1
Request: Let's sort these by IC50, smallest first. Go ahead? Order the labels as requested and give them as your answer.
Result: D, A, B, E, C

---

system_under_test: P38 (Homo sapiens, UniProt Q16539)
Sequence (Q16539 whole entry): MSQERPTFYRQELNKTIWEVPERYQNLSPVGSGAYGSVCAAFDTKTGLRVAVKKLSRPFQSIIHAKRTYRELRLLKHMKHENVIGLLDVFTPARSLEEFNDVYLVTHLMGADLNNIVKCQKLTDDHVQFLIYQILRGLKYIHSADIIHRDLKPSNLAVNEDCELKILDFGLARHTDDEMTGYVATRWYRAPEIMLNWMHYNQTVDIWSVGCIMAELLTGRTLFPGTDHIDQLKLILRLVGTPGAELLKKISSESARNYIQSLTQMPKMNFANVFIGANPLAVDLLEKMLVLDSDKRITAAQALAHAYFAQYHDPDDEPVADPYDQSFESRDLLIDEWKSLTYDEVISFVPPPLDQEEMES
# IC50 per record follows

Solved cases below.
[
  {
    "compound_string": "CCN(CC)CCNC(=O)c1c(C)[nH]c(/C=C2\\C(=O)Nc3cccc(-c4cccc(OC)c4)c32)c1C",
    "property_name": "IC50",
    "measured_value": "> 10 µM"
  },
  {
    "compound_string": "Cc1[nH]c(/C=C2\\C(=O)Nc3cccc(-c4ccc(F)cc4)c32)c(C)c1C(=O)N1CCN(C)CC1",
    "property_name": "IC50",
    "measured_value": "> 10 µM"
  },
  {
    "compound_string": "CCN(CC)CCNC(=O)c1c(C)[nH]c(/C=C2\\C(=O)Nc3cccc(-c4cccc(Cl)c4)c32)c1C",
    "property_name": "IC50",
    "measured_value": "> 10 µM"
  }
]

Could you now look at the following compound, please?
Request: Need IC50 of Cc1cc(C(=O)N2CC[C@H](N(C)C)C2)c(/C=C2\C(=O)Nc3cccc(-c4ccc(F)cc4)c32)[nH]1 , thanks.
Result: > 10 µM

---

Data export: pIC50 values recorded with P38 (Homo sapiens).
pIC50: −log10 of the molar value.
property_name: pIC50

[
  {
    "compound_string": "CCN(CC)CCNC(=O)c1c[nH]c(/C=C2\\C(=O)Nc3cccc(-c4ccc(Br)cc4)c32)c1C",
    "pIC50": 5.20
  }
]

[P] Cc1[nH]c(/C=C2\C(=O)Nc3cccc(-c4cccc(F)c4)c32)c(C)c1C(=O)NCCn1ccnn1
[Q] Cc1[nH]c(/C=C2\C(=O)Nc3cccc(-c4ccc(Cl)cc4)c32)c(C)c1C(=O)NCCN1CCCC1
[R] Cc1[nH]c(/C=C2\C(=O)Nc3cccc(-c4ccc(Br)cc4)c32)c(C)c1C(=O)NCCN(C(C)C)C(C)C
Request: In this exercise, place the 3 compounds in ascending sequence of their recorded pIC50. State the ranking by listing the labels in the requested order.
Result: Q, R, P

---

system_under_test: SRC (Homo sapiens, UniProt P12931)
Sequence (P12931 whole entry): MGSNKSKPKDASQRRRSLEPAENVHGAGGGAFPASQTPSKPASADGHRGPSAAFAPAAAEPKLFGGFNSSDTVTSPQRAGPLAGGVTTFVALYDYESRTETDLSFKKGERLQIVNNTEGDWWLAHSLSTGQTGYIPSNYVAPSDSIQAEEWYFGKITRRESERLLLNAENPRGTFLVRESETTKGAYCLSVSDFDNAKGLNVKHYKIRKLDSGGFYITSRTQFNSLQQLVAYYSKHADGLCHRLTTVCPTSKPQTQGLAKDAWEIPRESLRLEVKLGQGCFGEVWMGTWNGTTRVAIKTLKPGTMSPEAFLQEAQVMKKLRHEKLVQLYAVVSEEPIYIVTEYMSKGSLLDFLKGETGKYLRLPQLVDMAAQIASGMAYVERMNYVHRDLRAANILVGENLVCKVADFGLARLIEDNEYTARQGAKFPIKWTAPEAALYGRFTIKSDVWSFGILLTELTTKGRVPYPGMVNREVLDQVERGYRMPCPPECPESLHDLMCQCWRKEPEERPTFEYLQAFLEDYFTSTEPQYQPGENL
test_protocol: Src transphosphorylation assay
run_parameters: recombinant human Src, poly(Glu-Tyr) substrate
property_name: IC50 (µM)

[
  {
    "compound_string": "Cc1[nH]c(/C=C2\\C(=O)Nc3cccc(-c4ccc(Br)cc4)c32)c(C)c1C(=O)N1C[C@@H](C)N[C@@H](C)C1",
    "IC50, µM": 4.74
  },
  {
    "compound_string": "Cc1[nH]c(/C=C2\\C(=O)Nc3cccc(-c4ccc(F)cc4)c32)c(C)c1C(=O)NCCN1CCCC1",
    "IC50, µM": 4.93
  },
  {
    "compound_string": "Cc1cc(C(=O)NCCn2ccnn2)c(/C=C2\\C(=O)Nc3cccc(-c4cccc(Cl)c4)c32)[nH]1",
    "IC50, µM": 7.26
  },
  {
    "compound_string": "CCN(CC)CCNC(=O)c1c(C)[nH]c(/C=C2\\C(=O)Nc3cccc(-c4cccc(Cl)c4)c32)c1C",
    "IC50, µM": 1.25
  },
  {
    "compound_string": "CCN(CC)CCNC(=O)c1c(C)[nH]c(/C=C2\\C(=O)Nc3cccc(-c4ccc(OC(F)(F)F)cc4)c32)c1C",
    "IC50, µM": 4.31
  },
  {
    "compound_string": "COc1cccc(-c2cccc3c2/C(=C/c2[nH]c(C)c(C(=O)NCCN(C(C)C)C(C)C)c2C)C(=O)N3)c1",
    "IC50, µM": 0.54
  },
  {
    "compound_string": "Cc1cc(C(=O)N2CC[C@H](N(C)C)C2)c(/C=C2\\C(=O)Nc3cccc(-c4ccc(F)cc4)c32)[nH]1",
    "IC50, µM": 1.82
  },
  {
    "compound_string": "Cc1[nH]c(/C=C2\\C(=O)Nc3cccc(-c4ccc(Br)cc4)c32)c(C)c1C(=O)N1CCN(C)CC1",
    "IC50, µM": 13.5
  },
  {
    "compound_string": "Cc1cc(C(=O)N2CC[C@H](N(C)C)C2)c(/C=C2\\C(=O)Nc3cccc(-c4cccc(Cl)c4)c32)[nH]1",
    "IC50, µM": 5.37
  },
  {
    "compound_string": "COc1ccc(-c2cccc3c2/C(=C/c2[nH]c(C)c(C(=O)N4C[C@@H](C)N[C@@H](C)C4)c2C)C(=O)N3)cc1",
    "IC50, µM": 6.57
  }
]

[I] Cc1[nH]c(/C=C2\C(=O)Nc3cccc(-c4cccc(C(F)(F)F)c4)c32)c(C)c1C(=O)N1CCN(C)CC1
[II] Cc1cc(C(=O)N2C[C@@H](C)N[C@@H](C)C2)c(/C=C2\C(=O)Nc3cccc(-c4ccc(Cl)cc4)c32)[nH]1
Request: Which has the smaller recorded IC50, I or II ? Choose, then provide that item's label.
Result: I
(I: 7.09 µM, II: 13.9 µM)

---

system_under_test: UniProt:P22607
Sequence (P22607 23-806, species assumed): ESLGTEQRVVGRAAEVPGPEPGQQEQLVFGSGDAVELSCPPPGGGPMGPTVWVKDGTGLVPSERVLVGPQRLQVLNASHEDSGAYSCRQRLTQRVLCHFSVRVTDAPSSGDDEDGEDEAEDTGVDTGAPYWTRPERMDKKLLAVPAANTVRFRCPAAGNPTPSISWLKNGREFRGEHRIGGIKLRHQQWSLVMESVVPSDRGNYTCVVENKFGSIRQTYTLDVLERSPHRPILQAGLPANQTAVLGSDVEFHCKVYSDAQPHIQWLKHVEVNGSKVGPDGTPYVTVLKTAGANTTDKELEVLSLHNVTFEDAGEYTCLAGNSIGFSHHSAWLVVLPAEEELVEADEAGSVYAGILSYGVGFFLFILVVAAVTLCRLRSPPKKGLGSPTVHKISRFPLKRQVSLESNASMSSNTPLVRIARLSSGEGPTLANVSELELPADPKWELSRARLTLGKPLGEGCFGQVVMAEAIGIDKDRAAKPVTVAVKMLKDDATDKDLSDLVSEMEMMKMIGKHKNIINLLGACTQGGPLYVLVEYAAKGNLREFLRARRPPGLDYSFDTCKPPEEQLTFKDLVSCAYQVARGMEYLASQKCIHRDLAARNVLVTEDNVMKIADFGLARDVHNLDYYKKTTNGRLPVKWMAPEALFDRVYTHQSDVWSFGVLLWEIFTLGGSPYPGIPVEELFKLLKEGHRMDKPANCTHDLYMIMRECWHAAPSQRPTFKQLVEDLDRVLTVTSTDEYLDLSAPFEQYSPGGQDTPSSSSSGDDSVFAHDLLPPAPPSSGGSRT
property_name: IC50 (nM)

[1] Cc1[nH]c(/C=C2\C(=O)Nc3cccc(-c4ccc(Cl)cc4)c32)c(C)c1C(=O)N1CCN(C)CC1 [Example 20]
[2] CCN(CC)CCNC(=O)c1c(C)[nH]c(/C=C2\C(=O)Nc3cccc(-c4cccc(OC)c4)c32)c1C [Example 46]
Request: For the pair 1 and 2 , which entry has the numerically smaller recorded IC50? Record your answer as the label of the chosen record.
Result: 2
(2: 9 nM, 1: 1290 nM)

---

system_under_test: SRC (Homo sapiens, UniProt P12931)
test_protocol: Src transphosphorylation assay
run_parameters: recombinant human Src, poly(Glu-Tyr) substrate
property_name: IC50 (µM)

[
  {
    "compound": "Cc1cc(C(=O)N2C[C@@H](C)N[C@@H](C)C2)c(/C=C2\\C(=O)Nc3cccc(-c4cccc(Cl)c4)c32)[nH]1 [Example 35]",
    "IC50, µM": 9.72
  }
]

[A] CCOC(=O)c1c(C)[nH]c(/C=C2\C(=O)Nc3cccc(-c4cccc(F)c4)c32)c1CCCN1CCN(C)CC1 [Example 18]
[B] CCN(CC)CCNC(=O)c1c(C)[nH]c(/C=C2\C(=O)Nc3cccc(-c4cccc(Br)c4)c32)c1C [Example 63]
Request: Between the entries labelled A and B , which has a larger IC50 value on record? # reply format: chosen label
Result: A

---

system_under_test: MET (Homo sapiens, UniProt P08581)
Construct: Purified GST fusion protein containing the Met kinase domain, SUGEN, Inc
Sequence (P08581 1078-1345 limits assumed): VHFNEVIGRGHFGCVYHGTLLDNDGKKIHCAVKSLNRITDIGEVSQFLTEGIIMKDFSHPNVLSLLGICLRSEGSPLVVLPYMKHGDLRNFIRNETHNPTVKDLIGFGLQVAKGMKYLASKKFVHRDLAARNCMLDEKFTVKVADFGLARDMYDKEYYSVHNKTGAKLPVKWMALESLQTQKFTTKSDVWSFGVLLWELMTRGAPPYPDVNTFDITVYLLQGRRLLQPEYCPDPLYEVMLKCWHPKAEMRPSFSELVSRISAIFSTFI
test_protocol: MET transphosphorylation assay
run_parameters: GST fusion protein containing the Met kinase domain, poly(glu-tyr) substrate
pIC50: −log10 of the molar value.
property_name: pIC50

Use these answered entries as a reference point.
[
  {
    "compound_string": "Cc1cc(C(=O)N2C[C@@H](C)N[C@@H](C)C2)c(/C=C2\\C(=O)Nc3cccc(-c4cccc(Cl)c4)c32)[nH]1",
    "measured_value": 6.47
  },
  {
    "compound_string": "Cc1[nH]c(/C=C2\\C(=O)Nc3cccc(-c4cccc(C(F)(F)F)c4)c32)c(C)c1C(=O)N1CCN(C)CC1",
    "measured_value": 6.24
  },
  {
    "compound_string": "COc1cccc(-c2cccc3c2/C(=C/c2[nH]c(C)c(C(=O)NCCn4ccnn4)c2C)C(=O)N3)c1",
    "measured_value": 5.97
  },
  {
    "compound_string": "CCN(CC)CCNC(=O)c1c(C)[nH]c(/C=C2\\C(=O)Nc3cccc(-c4cccc(Cl)c4)c32)c1C",
    "measured_value": 7.19
  },
  {
    "compound_string": "Cc1[nH]c(/C=C2\\C(=O)Nc3cccc(-c4ccccc4F)c32)c(C)c1C(=O)N1CCN(C)CC1",
    "measured_value": 7.10
  },
  {
    "compound_string": "Cc1cc(C(=O)NCCN2CCCC2)c(/C=C2\\C(=O)Nc3cccc(-c4ccc(F)c(Cl)c4)c32)[nH]1",
    "measured_value": 7.23
  },
  {
    "compound_string": "Cc1cc(C(=O)N2CC[C@H](N(C)C)C2)c(/C=C2\\C(=O)Nc3cccc(-c4ccc(F)cc4)c32)[nH]1",
    "measured_value": 6.64
  },
  {
    "compound_string": "Cc1[nH]c(/C=C2\\C(=O)Nc3cccc(-c4cccc(F)c4)c32)c(C)c1C(=O)NCCn1ccnn1",
    "measured_value": 6.43
  }
]

[a] CCN(CC)CCNC(=O)c1c(C)[nH]c(/C=C2\C(=O)Nc3cccc(-c4ccccc4)c32)c1C
[b] Cc1cc(C(=O)N2C[C@@H](C)N[C@@H](C)C2)c(/C=C2\C(=O)Nc3cccc(-c4ccc(Cl)cc4)c32)[nH]1
[c] Cc1[nH]c(/C=C2\C(=O)Nc3cccc(-c4ccc(Cl)cc4)c32)c(C)c1C(=O)N1CCN(C)CC1
[d] Cc1[nH]c(/C=C2\C(=O)Nc3cccc(-c4ccc(Br)cc4)c32)c(C)c1C(=O)N1CCN(C)CC1
Request: Put the entries in order of pIC50, starting with the largest number. The reply should contain the labels ordered as requested.
Result: a, b, d, c
(a: 7.11, b: 6.82, d: 6.54, c: 6.28)
